- measured-on: C5 (Homo sapiens, UniProt P01031)
- Sequence (P01031 19-1676): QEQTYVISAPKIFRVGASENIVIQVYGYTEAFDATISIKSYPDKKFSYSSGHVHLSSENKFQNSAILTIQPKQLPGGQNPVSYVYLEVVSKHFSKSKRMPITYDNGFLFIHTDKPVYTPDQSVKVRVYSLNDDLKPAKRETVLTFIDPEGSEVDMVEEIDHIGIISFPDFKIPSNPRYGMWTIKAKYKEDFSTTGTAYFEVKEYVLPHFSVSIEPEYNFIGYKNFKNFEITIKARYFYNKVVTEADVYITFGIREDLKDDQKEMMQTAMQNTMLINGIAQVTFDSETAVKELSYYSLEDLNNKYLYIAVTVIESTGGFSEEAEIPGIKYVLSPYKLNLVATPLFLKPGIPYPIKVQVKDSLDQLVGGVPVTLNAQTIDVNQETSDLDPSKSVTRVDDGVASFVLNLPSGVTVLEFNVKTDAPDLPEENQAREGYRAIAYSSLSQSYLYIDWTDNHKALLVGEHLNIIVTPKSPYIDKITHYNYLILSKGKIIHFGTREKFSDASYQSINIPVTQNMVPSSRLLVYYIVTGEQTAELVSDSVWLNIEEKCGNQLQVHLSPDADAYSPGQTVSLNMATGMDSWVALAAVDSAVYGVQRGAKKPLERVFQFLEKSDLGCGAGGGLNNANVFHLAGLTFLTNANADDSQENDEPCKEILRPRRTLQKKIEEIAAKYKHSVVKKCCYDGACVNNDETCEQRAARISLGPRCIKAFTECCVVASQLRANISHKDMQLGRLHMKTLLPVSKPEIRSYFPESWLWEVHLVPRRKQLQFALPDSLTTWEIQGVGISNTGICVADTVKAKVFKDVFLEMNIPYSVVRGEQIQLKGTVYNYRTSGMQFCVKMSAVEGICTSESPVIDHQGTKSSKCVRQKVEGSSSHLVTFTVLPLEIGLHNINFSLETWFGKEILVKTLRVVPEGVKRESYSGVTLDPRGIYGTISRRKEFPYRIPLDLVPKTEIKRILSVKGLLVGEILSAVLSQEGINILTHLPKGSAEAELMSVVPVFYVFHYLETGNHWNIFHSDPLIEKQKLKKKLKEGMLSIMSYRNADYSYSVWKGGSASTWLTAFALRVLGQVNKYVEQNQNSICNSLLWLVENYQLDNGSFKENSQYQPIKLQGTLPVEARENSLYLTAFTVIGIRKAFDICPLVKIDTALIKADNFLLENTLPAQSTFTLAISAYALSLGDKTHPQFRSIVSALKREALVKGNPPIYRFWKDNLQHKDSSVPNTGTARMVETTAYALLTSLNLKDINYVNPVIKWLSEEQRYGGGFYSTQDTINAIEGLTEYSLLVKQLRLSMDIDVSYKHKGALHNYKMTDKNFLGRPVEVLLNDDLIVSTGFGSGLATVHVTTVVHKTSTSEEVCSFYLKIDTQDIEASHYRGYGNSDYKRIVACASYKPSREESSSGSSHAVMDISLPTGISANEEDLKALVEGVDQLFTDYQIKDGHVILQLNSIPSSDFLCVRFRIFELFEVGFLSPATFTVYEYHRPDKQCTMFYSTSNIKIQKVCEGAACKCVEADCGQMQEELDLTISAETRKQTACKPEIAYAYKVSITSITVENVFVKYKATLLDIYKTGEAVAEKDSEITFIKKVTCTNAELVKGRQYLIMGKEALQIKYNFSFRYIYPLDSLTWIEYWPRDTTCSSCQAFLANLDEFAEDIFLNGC
- test-method-notes: Biacore (SPR) single-cycle kinetics on immobilised C5
- Assay type: binding
- run-parameters: C5 binding, Biacore, n = 3 independent experiments; in 1/s
Catalogue of Mean Koff values
quantity-kind: Mean Koff

| molecule | test-value |
| --- | --- |
| hC3Nb1 C-Term (protein, left off: a dimerising Fc or GST) VHH: QVQLVETGGGLVQAGGSLRLSCAASGSIFSLNAMGWFRQAPGKEREFVATINRSGGRTYYADSVKGRFTISRDNGKNMVYLQMHSLKPEDTAIYYCAAGTGWSPQTDNEYNYWGQGTQVTVSSGGGSGCPPGYKSGVDCSPGSECKWGCYAVDGRRYGGYGADSGV | 1.19E−04 |
| hC3Nb1 Loop 2 (protein, left off: a dimerising Fc or GST) VHH: QVQLVETGGGLVQAGGSLRLSCAASGSIFSLNAMGWFRQAPSGGGSGCPPGYKSGVDCSPGSECKWGCYAVDGRRYGGYGADSGVSGGGSKEREFVATINRSGGRTYYADSVKGRFTISRDNGKNMVYLQMHSLKPEDTAIYYCAAGTGWSPQTDNEYNYWGQGTQVTVSS | 9.09E−05 |
| hC3Nb1 N-Term (protein, left off: a dimerising Fc or GST) VHH: TTVHQRTIKSGCPPGYKSGVDCSPGSECKWGCYAVDGRRYGGYGADSGVGSTYTHEFYVDAWGQGSSSSGSSSSGQVQLVETGGGLVQAGGSLRLSCAASGSIFSLNAMGWFRQAPGKEREFVATINRSGGRTYYADSVKGRFTISRDNGKNMVYLQMHSLKPEDTAIYYCAAGTGWSPQTDNEYNYWGQGTQVTVSS | 1.18E−04 |
| hC3Nb1Loop2ΔP (protein, left off: a dimerising Fc or GST) VHH: QVQLVETGGGLVQAGGSLRLSCAASGSIFSLNAMGWFRQASGGGSGCPPGYKSGVDCSPGSECKWGCYAVDGRRYGGYGADSGVSGGGSKEREFVATINRSGGRTYYADSVKGRFTISRDNGKNMVYLQMHSLKPEDTAIYYCAAGTGWSPQTDNEYNYWGQGTQVTVSS | 1.48E−04 |
| hC3Nb1 Loop 3 (protein, left off: a dimerising Fc or GST) VHH: QVQLVETGGGLVQAGGSLRLSCAASGSIFSLNAMGWFRQAPGKEREFVATINRSGGRTYYADSVKGSGGGSGCPPGYKSGVDCSPGSECKWGCYAVDGRRYGGYGADSGVSGGGSRFTISRDNGKNMVYLQMHSLKPEDTAIYYCAAGTGWSPQTDNEYNYWGQGTQVTVSS | 1.37E−04 |
